// data source = ChEMBL document CHEMBL1201862

- Tested on: UACC-257
- PROTOCOL SUMMARY: NCI tumour cell line growth inhibition, 48 h
Activity calls are given as the source filed them. Cut-off read from the data, not from the text of the source: active = GI50 up to about 1.1 µM and inactive = higher. Where a SMILES comes first, the peptide text is derived from it. [ ]: non-standard residue; d: D form. The star is where a group is joined. Cbz = O=C(OCc1ccccc1)*; Aib = CC(C)(N)C(=O)O
PROPERTY: GI50

> print(dat)
                                    molecule       measured.value
 1           COc1cc(O)c(C(=O)CC(C)=O)c(OC)c1  > 100 µM (inactive)
 2  Cc1noc(NS(=O)(=O)c2ccc(NC(=O)c3ccc4[nH]c5ccccc5c(=O)c4c3)cc2)c1C  > 100 µM (inactive)
 3  Cc1nc(Nc2ccc(Cl)c(Cl)c2)sc1C(/C=C/c1ccc2c(c1)OCO2)=N/Nc1ccc([N+](=O)[O-])cc1[N+](=O)[O-]  > 100 µM (inactive)
 4  CC(C)(NC(=O)C(C)(C)NC(=O)OCc1ccccc1)C(=O)O (Cbz-[Aib]-[Aib]-OH)  > 100 µM (inactive)
 5             O=S(=O)(O)SC/C=C\CSS(=O)(=O)O  > 100 µM (inactive)
 6             O=C(/C=C/c1cccc(Br)c1)c1cccs1   18.4 µM (inactive)
 7  Cc1nn(C(=O)c2ccncc2)c2c1C(c1ccccc1[N+](=O)[O-])SC(=N)N2 (stereo not given)   > 10 µM (inactive)
 8  C[C@@H](c1ccccc1)N1CN(C(=O)OCc2ccccc2)C(C)(C)CC1=O   78.2 µM (inactive)
 9  c1ccc(NN/N=N/c2ccc(-c3nc4ccccc4[nH]3)cc2)cc1   28.6 µM (inactive)
10  Nc1ccc(Cc2ccc(/N=C\c3ccc(OCc4cccc(COc5ccc(/C=N\c6ccc(Cc7ccc(N)cc7)cc6)cc5)n4)cc3)cc2)cc1  > 100 µM (inactive)
11            C=C(Br)COc1ccc2c(C)cc(=O)oc2c1   73.5 µM (inactive)
12  COc1ccc(N2C(=O)/C(=C/c3ccc(N(CCC#N)CCC#N)cc3C)N=C2c2cc([N+](=O)[O-])ccc2Cl)cc1   46.3 µM (inactive)
13  CCOC(=O)C1CCCN1C(=O)c1ccccc1Cl (stereo not given)  > 100 µM (inactive)
14  CCOC(=O)c1c[nH]c(C(=O)OCC)c1-c1cccn1-c1ccccc1   26.1 µM (inactive)
15  CCOC(=O)c1sc2nc(SC)nc3c2c1NCN3c1ccc2c(c1)OCCCO2  > 100 µM (inactive)
16  COc1ccc(Cc2nc3cc(C(F)(F)F)ccc3n2C[C@@H]2CCCN3CCCCC23)cc1 (stereo not given in full)   2.46 µM (inactive)
17  COc1ccc2c(=O)c(-c3cc(OC)c(OC)cc3OC)coc2c1   11.3 µM (inactive)
18                CN(C)C(=S)/N=c1\ssc(=S)n1C  > 100 µM (inactive)
19  COc1cc2c(cc1Cl)[n+]([O-])c(C#N)c(N1CCN(c3ccc([N+](=O)[O-])cc3)CC1)[n+]2[O-]   14.8 µM (inactive)
20  O=C1NC(=O)C(COCc2ccccc2)C2=C1SCCC2 (stereo not given)  > 100 µM (inactive)

---

- Tested on: OVCAR-8
- PROTOCOL SUMMARY: NCI tumour cell line growth inhibition, 48 h
Structures can show the parent of a compound that is named as a salt. Calls of active or inactive are those of the source. Rule as the data show it: active = GI50 up to about 1.1 µM and inactive = higher.
PROPERTY: GI50

> print(dat)
                                   compound  subject.of.test       measured.value
1  CC/C(=C(\c1ccccc1)c1ccc(OCCN(C)C)cc1)c1ccccc1 [TAMOXIFEN CITRATE]          OVCAR-8   6.32 µM (inactive)
2  N#CCCN(CCC#N)c1ccc(/C=N\c2nc(-c3ccccc3)cs2)cc1          OVCAR-8  > 100 µM (inactive)
3  NS(=O)(=O)c1ccc(NC(=S)N/C=C2\C(=O)Oc3ccccc3C2=O)cc1          OVCAR-8   16.2 µM (inactive)
4  Cc1ccc(C(O)c2cnc(C)n2Cc2ccccc2)cc1 (stereo not given)          OVCAR-8  > 100 µM (inactive)
5  COc1cccc(/N=N/C(=NNC(=O)c2ccc(C)cc2)c2ccc(N(C)C)cc2)c1          OVCAR-8  > 100 µM (inactive)

---

- Tested on: IGROV-1
- PROTOCOL SUMMARY: NCI tumour cell line growth inhibition, 48 h
Activity calls are given as the source filed them. No stated cut-off is given here; in the data, active = GI50 up to about 1.1 µM and inactive = higher.
# GI50 annotations
PROPERTY: GI50

> print(dat)
                                    molecule       measured.value
 1  C/C=C/C(C/C=C(\C)CO[Si](C)(C)C(C)(C)C)O[Si](C)(C)C(C)(C)C (stereo unspecified)  > 100 µM (inactive)
 2     O=C1C=C/C(=N\N=C(c2ccccc2)c2ccccc2)O1   > 10 µM (inactive)
 3  COc1c2c(c(CC=C(C)C)c3oc(=O)c(-c4ccc(O)cc4)c(O)c13)OC(C)(C)C=C2   18.4 µM (inactive)
 4                   CS(=O)(=O)OCOS(C)(=O)=O  > 100 µM (inactive)
 5  Nc1nc(-c2ccccc2)cc(-c2ccc(OCc3ccccc3)cc2O)n1   32.7 µM (inactive)
 6  COc1ccc(N2C(=O)C3c4[nH]c5ccccc5c4C4C(C)CCCC4C3C2=O)cc1 (stereo unspecified)     10 µM (inactive)
 7  CCc1cccc(C(C)CC)c1NC(=O)C(=O)C(CC(=O)Nc1ccc(Cl)c(Cl)c1)C(=O)OC (stereo unspecified)  > 100 µM (inactive)
 8  Cn1c(=O)nc2n(CCO)c(-c3ccccc3)c(-c3ccccc3)nc-2c1=O  > 100 µM (inactive)
 9  CC(C)(C)NC1C2CCC(C)(C1O)C2(C)C (stereo unspecified)  > 100 µM (inactive)
10  C[N+](C)(CCNc1ccc(NCC[N+](C)(C)Cc2ccc([N+](=O)[O-])cc2)c2c1C(=O)c1c(O)ccc(O)c1C2=O)Cc1ccc([N+](=O)[O-])cc1   > 50 µM (inactive)
11  CC(C)(C)COC(=O)C(C)(C)NC(=O)C(CC(=O)OCc1ccccc1)NC(=O)OCc1ccccc1 (stereo unspecified)     61 µM (inactive)
12      O=c1[nH]c(=O)c2c([nH]1)[nH]c1ccccc12  > 100 µM (inactive)
13  CCCCCCOc1ccc(NC2=C(Cl)C(=O)c3ncccc3C2=O)cc1   2.77 µM (inactive)
14  CCOc1ccc(N2C(=O)C3c4[nH]c5ccccc5c4C4CCC(C(C)(C)C)CC4C3C2=O)cc1 (stereo unspecified)  > 100 µM (inactive)
15  COc1ccc(C(Cc2cc(OC)c(OC)c(OC)c2)C(=O)O)cc1 (stereo unspecified)   76.2 µM (inactive)
16     COc1cc(O)cc2oc(-c3ccc(O)cc3)cc(=O)c12   47.3 µM (inactive)
17   COc1ccc2c(c1)c1ccc3c(c1n2C)C(=O)C=CC3=O   12.7 µM (inactive)
18  C1=NN(Cc2ccccc2)C(N(Cc2ccccc2)Cc2ccccc2)N1 (stereo unspecified)   14.5 µM (inactive)
19  Cc1ccc(C(O)c2cnc(C)n2Cc2ccccc2)cc1 (stereo unspecified)  > 100 µM (inactive)
20  O=C1C=C(Nc2ccccc2C(=O)c2ccccc2)c2ccccc2C1=O  > 100 µM (inactive)
21  O=c1/c(=C/c2ccc3c(c2)OCO3)sc2nnc(Cc3ccccc3)n12  > 100 µM (inactive)

---

# GI50 annotations
- Tested on: UACC-257
- PROTOCOL SUMMARY: NCI tumour cell line growth inhibition, 48 h
Active and inactive are the calls of the source. No stated cut-off is given here; in the data, active = GI50 up to about 1.1 µM and inactive = higher.

COMPOUND	GI50
COC(=O)C1(C)C=C(Nc2ccccc2)C(=O)N1c1ccccc1 (centres undefined)	> 100 µM (inactive)
C[C@H](CS)C(=O)N1c2ccccc2C[C@H]1C(=O)O	> 100 µM (inactive)
Cc1nc(NC(=S)NC(=O)c2ccc(Cl)c(Cl)c2)sc1C(=O)/C=C/c1ccccc1[N+](=O)[O-]	30.1 µM (inactive)
O=S(=O)(N1CCCCN(S(=O)(=O)C(F)(F)F)CCCN(S(=O)(=O)C(F)(F)F)CCCN(S(=O)(=O)C(F)(F)F)CCCCN(S(=O)(=O)C(F)(F)F)CCCN(S(=O)(=O)C(F)(F)F)CCC1)C(F)(F)F	49.3 µM (inactive)
O=C1c2ccccc2N2OC3(N4CCCC4)CCCCC3C12c1ccccc1 (centres undefined)	19.3 µM (inactive)
Cc1cc(C)c2c(c1)C/C(=C\c1cccc(C)c1C(=O)O)C2=O	33.3 µM (inactive)
N#CC12CC3=C(N=C1NC1=C(CCc4ccccc41)C2)c1ccccc1CC3 (centres undefined)	17.6 µM (inactive)
CCOc1ccc(N2C(=O)C3c4[nH]c5ccccc5c4C4CCC(C(C)(C)C)CC4C3C2=O)cc1 (centres undefined)	> 100 µM (inactive)
COc1cccc(/N=N/C(=NNC(=O)c2ccc(C)cc2)c2ccc(N(C)C)cc2)c1	> 100 µM (inactive)
